The reported measurements were obtained from patent US8377884B2.

biological target: NPR-B (Mus musculus, UniProt Q6VVW5); construct: Murine NIH3T3 cells express endogenously the CNP signaling receptor, NPR-B; endogenous in cells; host or cells: NIH3T3 (murine fibroblasts); assay: Stimulation of cGMP production in NIH3T3 cells; type: cell-based, Murine; conditions: NIH3T3 cells; 1 uM natriuretic peptide; normalized to cell number and cGMP production with 1 uM wtCNP22; read-out: cGMP Response rel. to 1 uM CNP22, 1 uM
Sequence (Q6VVW5 17-1047): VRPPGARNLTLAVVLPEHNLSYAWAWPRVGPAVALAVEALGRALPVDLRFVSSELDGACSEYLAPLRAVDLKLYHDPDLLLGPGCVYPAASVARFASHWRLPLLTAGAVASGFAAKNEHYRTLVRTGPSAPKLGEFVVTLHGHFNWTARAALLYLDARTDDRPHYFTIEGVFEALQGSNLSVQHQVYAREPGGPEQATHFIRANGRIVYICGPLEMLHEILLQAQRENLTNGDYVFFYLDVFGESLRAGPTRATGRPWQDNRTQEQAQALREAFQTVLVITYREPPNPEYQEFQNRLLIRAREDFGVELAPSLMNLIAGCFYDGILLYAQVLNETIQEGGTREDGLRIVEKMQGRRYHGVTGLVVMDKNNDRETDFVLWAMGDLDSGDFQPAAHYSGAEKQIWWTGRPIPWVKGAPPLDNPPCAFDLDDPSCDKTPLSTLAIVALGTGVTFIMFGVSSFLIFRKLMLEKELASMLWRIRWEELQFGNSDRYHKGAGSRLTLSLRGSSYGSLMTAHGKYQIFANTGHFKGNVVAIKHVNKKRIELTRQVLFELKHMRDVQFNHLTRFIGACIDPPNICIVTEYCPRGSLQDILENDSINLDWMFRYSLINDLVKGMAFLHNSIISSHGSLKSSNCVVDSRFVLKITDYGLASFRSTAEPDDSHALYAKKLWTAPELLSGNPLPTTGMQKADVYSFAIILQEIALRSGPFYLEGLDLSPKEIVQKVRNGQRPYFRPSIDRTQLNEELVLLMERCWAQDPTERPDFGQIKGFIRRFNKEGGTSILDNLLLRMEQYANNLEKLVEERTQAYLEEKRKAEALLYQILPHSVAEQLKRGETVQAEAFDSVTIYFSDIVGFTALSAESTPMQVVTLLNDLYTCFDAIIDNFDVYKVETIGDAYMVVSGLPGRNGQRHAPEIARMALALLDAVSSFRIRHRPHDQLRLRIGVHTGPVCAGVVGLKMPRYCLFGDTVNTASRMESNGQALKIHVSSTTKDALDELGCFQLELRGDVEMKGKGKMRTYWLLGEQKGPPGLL
Quantity measured: cGMP response relative to 1 uM CNP22 (%) at 1 µM

compound="CC[C@H](C)[C@@H]1NC(=O)[C@H](CCCNC(=N)N)NC(=O)[C@H](CC(=O)O)NC(=O)[C@H](CC(C)C)NC(=O)[C@H](CCCCN)NC(=O)[C@H](CC(C)C)NC(=O)CNC(=O)[C@H](Cc2ccccc2)NC(=O)[C@@H](NC(=O)CNC(=O)[C@H](CCCCN)NC(=O)[C@H](CO)NC(=O)[C@H](CC(C)C)NC(=O)CNC(=O)CCOCCOCCOCCOCCOCCOCCOCCOCCOCCOCCOCCOC)CSSC[C@@H](C(=O)O)NC(=O)CNC(=O)[C@H](CC(C)C)NC(=O)CNC(=O)[C@H](CO)NC(=O)[C@H](CCSC)NC(=O)[C@H](CO)NC(=O)CNC1=O [PEO12-CNP22]" system="NPR-B (Mus musculus, UniProt Q6VVW5)" result=57
